Test system: EKVX NSCLC
Protocol Description: NCI-60 one-dose screen, 48 h
Cond: 10 µM
About 83,000 compounds went through this panel and 20% of them were active in at least one assay; those are over-represented in the sample as a whole. Active and inactive are the calls of the source. The calls were made as follows: active = growth percent below 10; inactive = the rest.
Write down one outcome, taken from true (1) = active, false (0) = inactive

Ask | Short answer needed: outcome of this test for `C[C@H]1[C@H](OC(=O)CCC(=O)Nc2cnccn2)O[C@@H]2OC3(C)CC[C@H]4[C@H](C)CC[C@@H]1[C@@]24OO3` ?
Reply | false (0)

Ask | Short answer needed: outcome of this test for `O=C(/C=C/c1ccc(Cl)cc1)c1nc2ccccc2n1Cc1ccc(F)cc1` ?
Reply | false (0)

Ask | Short answer needed: outcome of this test for `COC(=O)c1ccc(-n2cc(CCCN(CCNc3ccnc4cc(Cl)ccc34)C(=O)CCC(=O)O[C@@H]3O[C@@H]4OC5(C)CC[C@H]6[C@H](C)CC[C@@H]([C@H]3C)[C@@]46OO5)nn2)cc1` ?
Reply | false (0)

Ask | Short answer needed: outcome of this test for `O=C(/C=C/c1ccco1)c1nc2ccccc2n1Cc1ccc(F)cc1` ?
Reply | false (0)

Ask | Short answer needed: outcome of this test for `COc1ccc(OC)c(/C=C/C(=O)c2nc3ccccc3n2Cc2ccc(F)cc2)c1` ?
Reply | true (1)

Ask | Short answer needed: outcome of this test for `O=C(/C=C/c1cccc(Br)c1)c1nc2ccccc2n1Cc1ccc(F)cc1` ?
Reply | false (0)

Ask | Short answer needed: outcome of this test for `CC[C@]12C=CCN3CC[C@@]4(c5ccc(OC)cc5N(C)[C@H]4[C@@](O)(C(=O)OC)[C@@H]1OC(=O)CCC[P+](C1CCCCC1)(C1CCCCC1)C1CCCCC1)[C@@H]32` ?
Reply | false (0)

Ask | Short answer needed: outcome of this test for `CC[C@]12C=CCN3CC[C@@]4(c5ccc(OC)cc5N(C)[C@H]4[C@@](O)(C(=O)OC)[C@@H]1OC(=O)CCCC[P+](c1ccc(OC)cc1)(c1ccc(OC)cc1)c1ccc(OC)cc1)[C@@H]32` ?
Reply | true (1)

Ask | Short answer needed: outcome of this test for `C[C@H]1[C@H](OC(=O)CCC(=O)N(CCCc2cn(-c3ccc(C#N)cc3)nn2)CCNc2ccnc3cc(Cl)ccc23)O[C@@H]2OC3(C)CC[C@H]4[C@H](C)CC[C@@H]1[C@@]24OO3` ?
Reply | false (0)

Ask | Short answer needed: outcome of this test for `O=C(/C=C/c1ccccc1)c1nc2ccccc2n1Cc1ccc(Br)cc1` ?
Reply | true (1)

Ask | Short answer needed: outcome of this test for `COC(=O)C[C@](O)(CCC(C)C)C(=O)O[C@@H]1C(OC)=C[C@]23CCCN2CCc2cc4c(cc2[C@H]13)OCO4` ?
Reply | true (1)

Ask | Short answer needed: outcome of this test for `COc1cc2cc(C(=O)N3C[C@@H](CCl)c4c3cc(OC(=O)N3CCN(C(=O)CCC(=O)N5CCN(C)CC5)[C@@H]5CSSC[C@@H]53)c3ccccc43)[nH]c2c(OC)c1OC` ?
Reply | true (1)

Ask | Short answer needed: outcome of this test for `CC12CCC3(CCC(=O)NCCCNc4ccnc5cc(Cl)ccc45)[C@@](C)(OO[C@]3(C)O1)O2` ?
Reply | true (1)

Ask | Short answer needed: outcome of this test for `CC[C@@]12CC(C(=O)OC)=C3Nc4cc5c(cc4[C@@]34CCN(C[C@H]3O[C@H]31)[C@@H]24)[C@@H]1[C@H](O5)[C@@H](O)[C@@]2(CC)CC(C(=O)OC)=C3Nc4cc(OC)ccc4[C@@]34CCN1[C@@H]24` ?
Reply | false (0)
